target: Hexose transporter 1 (Plasmodium falciparum) (UniProt O97467); assay: ST_JUDE_LEISH: Cytotoxicity at 2uM final concentration against transgenic Leishmania Mexicana promastigotes LmPfHT that are glucose transport deficient and complemented with the Plasmodium falciparum hexose transporter. Activity is measured by DNA content using SYBR green in vitro; assay type: functional
endpoint: inhibition (%)
Note: unit % is implicit; provide only the numeric part.

-- ask Dear colleague, I am looking for the recorded inhibition of the following compound: Cc1cc(N2CCCC2=O)ccc1-c1ccc(C(=O)N2CCC(Oc3cccc(Cl)c3)CC2)cc1
-- reply 1.95

-- ask Moving on to the next compound: Cn1nc(-c2cccc(CNCc3ccccc3)c2)c2cnc(NC3CCCC3)nc21
-- reply 0

-- ask Now the compound COCCn1c(-c2cccc(Cl)c2)nn(-c2ccc([N+](=O)[O-])cc2C#N)c1=S
-- reply -0.81

-- ask And for O=C(NCc1ccc(F)cc1)c1cc(Br)cc(N2CCN(c3ccncc3)CC2)c1 ?
-- reply 6.55

-- ask Next entry: O=C(/C=C/c1ccc(Cl)c(Cl)c1)NCCCCCCN1CCCN(C(=O)Nc2cccc(Cl)c2)CC1
-- reply 0.08

-- ask What do you have for CC(Cc1ccc(OCCN2CCN(c3ccccc3)CC2)cc1)NCC(O)c1cccc(Cl)c1F (centres undefined) ?
-- reply 0.09

-- ask Lookup O=C(Nc1ccnc2ccccc12)NC1CCN(Cc2ccccc2)CC1
-- reply 3.28

-- ask Param item: COc1ccc(NC(=O)c2cc(NC(=O)C3(N)CC3)c(=O)n(Cc3ccc(C(N)=O)cc3)c2)cc1
-- reply 3.44

-- ask And Nc1nc(N)c2c(CCc3ccc4ccccc4c3)cccc2n1 ?
-- reply 1.63

-- ask Further, for OC(CNC1CCCCC1)Cn1c2ccc(Br)cc2c2cc(Br)ccc21 (centres undefined) ?
-- reply 0.28

-- ask One more compound: Cc1cc(N[C@@H](CC(C)C)C(=O)Nc2ccccc2)nc(NCCc2ccccc2)n1
-- reply 2.93

-- ask Input COc1ccc(C(=O)CC(=O)c2ccc(OC)cc2OC)c(OC)c1
-- reply 4.03

-- ask Queued: N=C(N)NN=CC(=O)Nc1ccc(C(F)(F)F)cc1
-- reply -0.97

-- ask Same for CCN(CC)CCOc1ccc(C(O)(C#CC(O)(c2ccc(OCCN(CC)CC)cc2)c2ccc([N+](=O)[O-])cc2)c2ccc([N+](=O)[O-])cc2)cc1 (centres undefined)
-- reply 32.7

-- ask Query COc1ccc(CNc2ncc(-c3ccsc3)c(-c3nccs3)n2)cc1OC next
-- reply 0.94

-- ask Request: CCN(CC)CCCOC(=O)c1ccc2c(c1)-c1ccc(C(=O)OCCCN(CC)CC)c3cccc-2c13
-- reply 3.93

-- ask Now give it for O=C(Nc1ccc(Cn2ncc(N3CCCNCC3)c(Cl)c2=O)cc1)Nc1cccc(Oc2ccccc2)c1 too.
-- reply 2.39

-- ask // same read-out, input: Nc1nc(N)c2c(ccc3nn(C4CCCC4)cc32)n1
-- reply 9.8

-- ask Another compound: c1cc(OCCN2CCCC2)ccc1CNC1CCN(CC2CCCCC2)CC1
-- reply -0.11

-- ask Another compound to check: CCN1CCN(CCNc2c3ccccc3nc3ccccc23)CC1
-- reply 80.6

-- ask What would you report for Cn1nccc1C(=O)NCCNCc1ccc(-c2ccc(-c3nc4cc(C(F)(F)F)ccc4[nH]3)cc2)cc1 ?
-- reply 0.59

-- ask And for COc1cccc2cc(C(=O)N[C@@H](CC(C)C)C(=O)Nc3cc(F)ccc3Br)oc12 ?
-- reply 0.34

-- ask Quick one: Cc1cccc2nc(-c3ccc(-c4ccc(CN5CCC(N)C5)cc4)s3)[nH]c12 (centres undefined)
-- reply 0.94

-- ask Item: CCC1N=C(N)N=C(N)N1OCc1cccc2ccccc12 (centres undefined)
-- reply 0.62

-- ask Thanks! And COc1ccc(CNCc2cccc(-c3ccc(-c4nc5ccccc5[nH]4)s3)c2)cc1 ?
-- reply 3.24

-- ask Also Cc1ccc2[nH]c(C)cc(=NN=Cc3ccc(Cl)cc3)c2c1 , if possible.
-- reply 0.61

-- ask Input Fc1cccc(COc2ccc(Nc3ncnc4sc(C#C[C@H]5CCCN5)cc34)cc2F)c1
-- reply 2.54

-- ask Also need Cc1ccccc1-c1nc2c(CN3CCC(O)(c4ccccc4)CC3)c(O)ccc2[nH]1 , thanks.
-- reply 8.82

-- ask Repeat for the following compound: COc1ccc(-c2ccc(CNCc3ccccc3)cc2)cc1S(=O)(=O)NCCN1CCCC1
-- reply 1.92

-- ask Next compound: Cc1ccccc1C1CCN(C2CCC(NC(=O)/C=C/c3cccc(Cl)c3Cl)CC2)CC1 (centres undefined)
-- reply 1.26

-- ask Consider next the compound O=C(NOCCCCOc1ccc(Cl)c(Cl)c1)c1ccccc1 in the same way.
-- reply -2.61

-- ask Similarly, CCOCCCn1c(=N)c(C(=O)NC(C)c2ccccc2)cc2c(=O)n3cccc(C)c3nc21 (centres undefined) ?
-- reply 6.01

-- ask Can you check CCn1ccc2c(N3CCCC3=O)cc(C(=O)N[C@@H](Cc3ccccc3)[C@H](O)CNC3CCCCC3)cc21 next?
-- reply 7.08

-- ask And COc1ccc2ccc(F)c(CC(=O)N3CCOC(CNCc4cccc(-c5ccc(F)cc5)n4)C3)c2n1 (centres undefined) ?
-- reply 0.05

-- ask Request: CN(c1ccc(NC(=O)Nc2cccc(Cl)c2)cc1)c1ccnc(N)n1
-- reply 1.34

-- ask Next entry: O=C(Nc1cccc(-c2cccc(F)c2)c1)C1CCN(Cc2ccc(O)cc2)CC1
-- reply 2.14

-- ask Item: O=C(N[C@@H](Cc1cc(F)cc(F)c1)[C@H](O)CNCc1cccc(C(F)(F)F)c1)c1cc(C2CCCC2)cc(N2CCCC2=O)c1
-- reply 1.51

-- ask Next up: Cc1cc(O)c(CN2CCN(Cc3cccs3)CC2)cc1C(C)C
-- reply 0.02

-- ask Cool, now CC(C)C[C@H](NC(=O)c1ccc(OCCN2CCOCC2)cc1)C(=O)NC(/C=N/N1CCCC1=O)C(C)C (some centres undefined)
-- reply 3.56

* * *

target: Solute carrier family 2, facilitated glucose transporter member 1 (Homo sapiens) (UniProt P11166); assay: ST_JUDE_LEISH: Cytotoxicity at 2uM final concentration against transgenic Leishmania Mexicana promastigotes LmGLUT1 that are glucose transport deficient and complemented with the human glucose transporter GLUT1. Activity is measured by DNA content using SYBR green in vitro; type: functional
Sequence (P11166 whole entry): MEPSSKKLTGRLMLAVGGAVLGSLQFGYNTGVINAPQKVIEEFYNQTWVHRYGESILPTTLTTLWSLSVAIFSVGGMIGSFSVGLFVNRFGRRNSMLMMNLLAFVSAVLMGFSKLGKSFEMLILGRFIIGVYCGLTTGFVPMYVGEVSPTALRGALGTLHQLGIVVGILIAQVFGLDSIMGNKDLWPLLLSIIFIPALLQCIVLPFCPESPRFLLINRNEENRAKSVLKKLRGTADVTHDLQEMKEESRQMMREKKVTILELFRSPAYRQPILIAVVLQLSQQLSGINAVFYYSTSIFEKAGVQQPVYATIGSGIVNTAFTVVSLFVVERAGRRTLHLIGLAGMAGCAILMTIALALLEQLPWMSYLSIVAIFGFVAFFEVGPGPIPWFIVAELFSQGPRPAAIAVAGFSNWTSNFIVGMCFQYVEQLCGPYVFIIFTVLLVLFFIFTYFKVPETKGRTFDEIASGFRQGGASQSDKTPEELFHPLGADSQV
endpoint: inhibition
Form field: result (number plus unit)

-- ask Record request: inhibition value, item CCCN(C(=O)c1ccccc1C)c1nnc(-c2ccccc2C)s1
-- reply -1.25%

-- ask Now try O=C(Nc1ccc(Cn2ncc(N3CCCNCC3)c(Cl)c2=O)cc1)Nc1ccc(SC(F)(F)F)cc1 .
-- reply 3.57%

-- ask Now this one: Cc1cnc2ccc(NS(=O)(=O)c3ccc4c(Cl)cccc4c3)cc2c1N1CCNCC1
-- reply 1.16%

-- ask Similarly, O=C1NC(=O)C(c2cccc(NC(=O)c3ccncc3)c2)=C1c1ccccc1 ?
-- reply 1.05%

-- ask Would you kindly repeat that for COc1ccc(CN2CCCN(Cc3cccc(C(=O)Nc4ccc(C)c(F)c4)c3)CC2)cc1 ?
-- reply 0.27%

-- ask Request: COc1ccc2c(c1CCNCCCCNCCc1c(OC)ccc3c1CCCC3)CCCC2
-- reply 47.3%

-- ask Same question for c1ccc(Oc2ccc(Nc3ccnc4cc(-c5csc(CN6CCCCC6)n5)ccc34)cc2)nc1 please.
-- reply 0.24%

-- ask What do you have for Cc1ccc2[nH]cc(/C=C/C(=O)NC3CCC(CCN4CCc5ccc(C#N)cc5CC4)CC3)c2c1 (centres undefined) ?
-- reply 0.83%

-- ask Let us now turn to COc1ccc(C(=O)N2CCC3(CC2)C(=O)N(CC(=O)NC2CCCCC2)CN3c2ccccc2)c(OC)c1
-- reply 3.74%

* * *

Field: inhibition. Provide a value for each of the compounds that follow.
target: Hexose transporter 1 (Plasmodium falciparum); experiment: ST_JUDE_LEISH: Cytotoxicity at 2uM final concentration against transgenic Leishmania Mexicana promastigotes LmPfHT that are glucose transport deficient and complemented with the Plasmodium falciparum hexose transporter. Activity is measured by DNA content using SYBR green in vitro; format: functional
Write the number in % without appending the unit.

-- ask Record request: inhibition value, item Cc1[nH]c2ccc(-c3ccccc3)cc2c(=O)c1Br
-- reply 4.13

-- ask Thanks! And Clc1ccc(-c2ccc(C=NNc3nc(=Nc4ccccc4)[nH]c(=Nc4ccccc4)[nH]3)o2)cc1Cl ?
-- reply -1.12

-- ask Another compound to check: Cc1cc(Nc2ccccc2)nc(Nc2ccccc2C)n1
-- reply 4.32

-- ask Moving on to the next compound: CCc1ccc(Cc2cnc3nc(N)nc(N)c3c2C)cc1
-- reply 13.2

-- ask What do you get for CN(C)c1ccc(OCCCCCCOc2ccccc2)cc1 ?
-- reply 1.77

-- ask What about this compound? COC(=O)c1cccc(CNCc2cccc(-c3ccc(-c4nc5ccccc5[nH]4)s3)c2)c1
-- reply 2.5

-- ask How about this compound: CN(CCO)Cc1ccc(-c2ccc(NS(=O)(=O)c3cccc4cccnc34)cc2)cc1
-- reply 81.8

-- ask Another compound to check: COc1ccc(-c2nc(NC(=O)COc3ccc(C(C)=O)cc3)sc2C)cc1
-- reply 2.48

-- ask Now try CS(=O)(=O)N(c1cccc(F)c1)c1cc(C(=O)N[C@@H](Cc2ccccc2)[C@H](O)CNCc2cccc(C(F)(F)F)c2)cc(N2CCCC2=O)c1 .
-- reply -1.22

-- ask How about CS(=O)(=O)c1ccc(CNCc2cccc(-c3cccc(-c4nc5cc(C(F)(F)F)ccc5[nH]4)c3)c2)cc1 ?
-- reply 5.92

-- ask Please answer likewise for COc1cc2c(cc1OC)CN(CCc1ccc(NC(=O)c3cc4cc(OC(F)(F)F)ccc4[nH]3)cc1)CC2
-- reply 3.67

-- ask Cool, now CN1CCCCC1CCc1cc(C(=O)Nc2ccc(-c3ccc(O)cc3)cc2)ccc1O (stereo not given)
-- reply 1.76

-- ask Try CCOc1cc(C(=O)NCCN(CC)c2cccc(C)c2)ccc1-c1nc2cc(Cl)ccc2[nH]1 next.
-- reply 1.88

-- ask Can you check O=C(Nc1cccc(-c2ccc(-c3nc4cc(F)ccc4[nH]3)cc2)c1)Nc1ccc(F)c(F)c1F next?
-- reply 4.09

-- ask Quick one: COc1cc(NC(=O)c2sc(-c3ccc(Cl)cc3)cc2NC(=O)CN2CC[C@@H](O)C2)ccc1OCCN1CCCC1
-- reply 15.1

-- ask Can you handle CC(=O)NCC(=O)NC1=NC(=N)N(OCc2ccc3ccccc3c2)C(C)(C)N1 next?
-- reply 1.66

-- ask // repeat for COc1cc2nc(N(C)CC3COc4ccccc4O3)nc(N)c2cc1OC (stereo not given) and report
-- reply 1.69

-- ask Same question for NC1=NC(c2ccccc2)N(OCc2ccccc2)C(N)=N1 (stereo not given) please.
-- reply 0.08

-- ask Can you check CC(=O)c1ccc2nc[nH]c(=O)c2c1 next?
-- reply 96.3

-- ask Query CN1CC[C@@H](Oc2cc(C(=O)NCc3ccc(Cl)c(Cl)c3)ccc2C(F)(F)F)C1 next
-- reply -1.04

-- ask Query COc1ccc(-c2nc3cc4ccccc4nc3[nH]2)c(OCC(O)CNC(C)C)c1 (stereo not given) next
-- reply 1.33

-- ask Please answer likewise for COc1c(C2CCN(CCCCNC(=O)c3ccc(-c4ccc(C#N)cc4)cc3)CC2)ccc2c1C(C)(C)CCC2(C)C
-- reply 2.62

-- ask Next compound: Cc1cc(N/N=C/c2ccc([N+](=O)[O-])cc2)c2ccc(F)cc2n1
-- reply 3.03

-- ask Can you handle Cc1nc2nc(N)nc(N)c2c(C)c1Cc1ccc(C(N)=O)cc1 next?
-- reply 1.64

-- ask Same thing, different compound: CCNCc1ccc(-c2cccc(-c3nc4ccccc4[nH]3)c2)cc1
-- reply 1.16

-- ask And what about the compound CCc1ccc2nc(-c3ccc(F)cc3)nc(SCC(=O)Nc3sc(C)c(C)c3C#N)c2c1 ?
-- reply 7.28

-- ask Would you kindly repeat that for CCc1ccc(-n2c(NC(=O)c3ccccc3)nc3ccc(S(=O)(=O)NC(C)C(C)C)cc32)cc1 (stereo not given) ?
-- reply -1.8

-- ask Would you mind doing O=C(NC1CCN(Cc2ccccc2O)C1)c1ccc(-c2ccccc2)cc1 (stereo not given) as well?
-- reply 0.41

-- ask Another: CCc1c(C)nc(-n2nc(C)cc2NC(=O)C2c3ccccc3Oc3ccccc32)[nH]c1=O
-- reply -0.55

-- ask Now this one: O=C(Nc1ccc(Cl)cc1)c1cc(Cl)ccc1NC(=O)C1CCc2ccccc2O1 (stereo not given)
-- reply 2.53

-- ask Another compound to look at: O=C(COc1ccccc1)NC1CCN(c2ccnc3cc(Cl)ccc23)C1 (stereo not given)
-- reply 1

-- ask CCN(CC)CCN(Cc1ccc(-c2ccc(C(F)(F)F)cc2)cc1)C(=O)Cn1c(CCc2cccc(F)c2F)nc(=O)c2ccc(C(F)(F)F)cc21 , same question.
-- reply 1.49

-- ask How about Cc1nc(-c2nc(N3CCOCC3)ncc2-c2ccsc2)sc1C ?
-- reply -0.4

-- ask And what about the compound CCN(CCC1(c2ccc(Cl)c(Cl)c2)CN(C(=O)c2cc(OC)c(OC)c(OC)c2)CCO1)C1CC2c3ccccc3CC21 (stereo not given) ?
-- reply 1.17

-- ask Queued: CCc1c(CCNCCCCCCNCCc2ccc(Br)cc2)ccc(O)c1O
-- reply 0.74

-- ask Entry to check: Oc1ccc(CNCC2CCN(CC3CCCCC3)CC2)cc1
-- reply 0.53

-- ask Another compound to check: CCN1CCCC(Nc2ccnc3cc4ccccc4cc23)C1 (stereo not given)
-- reply 4.34

-- ask And for COc1ccc(-c2cc3nc4c(c(NCCCn5ccnc5)n3n2)CCCC4)cc1 ?
-- reply 1.92

-- ask Proceed to COc1ccc(-n2ccnc2SCC(=O)Nc2cc(C(F)(F)F)ccc2Cl)c(OC)c1
-- reply 11.2

-- ask How about this compound: CCCc1cc(Cc2cnc(N)nc2N)cc(OCCCCCC(=O)O)c1OC
-- reply 0.18

Each recorded value in this set is attributed to ChEMBL document CHEMBL3433997.
